Data origin, for the record: patent US20260092083A1

- Tested on: A. baumannii JMI #1186154
- TEST METHOD NOTES: Broth microdilution MIC, A. baumannii
- Format: cell-based
- CONDITION NOTES: Acinetobacter baumannii, iron-depleted CAMHB, OD600 ≤0.15, read-out: MIC (μg/mL) Gram-negative ACB
MEASURED PARAMETER: MIC (µg/mL)
I only need the number, in µg/mL, no unit after it.

{"COMPOUND": "CN[C@H](CC(C)C)C(=O)N[C@H]1C(=O)N[C@@H](CC(N)=O)C(=O)N[C@H]2C(=O)N[C@H]3C(=O)N[C@H](C(=O)N[C@H](C(=O)NCCCCNC(=O)c4ccc(O)c(O)c4Cl)c4cc(O)cc(O)c4-c4cc3ccc4O)[C@H](O)c3ccc(c(Cl)c3)Oc3cc2cc(c3O[C@@H]2O[C@H](CO)C(O)C(O)[C@H]2O[C@H]2CC(C)(N)[C@H](O)[C@H](C)O2)Oc2ccc(cc2Cl)[C@H]1O (some centres unmarked)", "TGT": "A. baumannii JMI #1186154", "MIC [µg/mL]": 1}

Recorded MIC for CNC(CC(C)C)C(=O)NC1C(=O)NC(CC(N)=O)C(=O)NC2C(=O)NC3C(=O)NC(C(=O)N[C@H](C(=O)O)c4cc(O)c(CNCCN[S@SP3](=O)(=O)c5ccc(O)c(O)c5)c(O)c4-c4cc3ccc4O)C(O)c3ccc(c(Cl)c3)Oc3cc2cc(c3OC2OC(CO)C(O)C(O)C2OC2CC(C)(N)C(O)C(C)O2)Oc2ccc(cc2Cl)C1O (some centres unmarked) , please?
32

---

Recorded MIC for the following compounds
- Tested on: E. coli (wild-type) BW25113

Guide cases for MIC, answers given:
{"COMPOUND": "CN[C@H](CC(C)C)C(=O)N[C@H]1C(=O)N[C@@H](CC(N)=O)C(=O)N[C@H]2C(=O)N[C@H]3C(=O)N[C@H](C(=O)N[C@H](C(=O)NCCCCCCCNC(=O)c4ccc(O)c(O)c4Cl)c4cc(O)cc(O)c4-c4cc3ccc4O)[C@H](O)c3ccc(c(Cl)c3)Oc3cc2cc(c3O[C@@H]2O[C@H](CO)C(O)C(O)[C@H]2O[C@H]2CC(C)(N)[C@H](O)[C@H](C)O2)Oc2ccc(cc2Cl)[C@H]1O (stereo partly drawn)", "MIC": "64 µg/mL"}
{"COMPOUND": "CC(C)CC(C(=O)NC1C(=O)NC(CC(N)=O)C(=O)NC2C(=O)NC3C(=O)NC(C(=O)N[C@H](C(=O)O)c4cc(O)cc(O)c4-c4cc3ccc4O)C(O)c3ccc(c(Cl)c3)Oc3cc2cc(c3OC2OC(CO)C(O)C(O)C2OC2CC(C)(N)C(O)C(C)O2)Oc2ccc(cc2Cl)C1O)N(C)CCCc1cn(CCCNC(=O)c2ccc(O)c(O)c2Cl)nn1 (stereo partly drawn)", "MIC": "> 64 µg/mL"}

Attention now shifts to the item below.
What MIC appears in the records for this compound with E. coli (wild-type) BW25113? CN[C@H](CC(C)C)C(=O)N[C@H]1C(=O)N[C@@H](CC(N)=O)C(=O)N[C@H]2C(=O)N[C@H]3C(=O)N[C@H](C(=O)N[C@H](C(=O)NCCCNC(=O)c4ccc(O)c(O)c4Cl)c4cc(O)cc(O)c4-c4cc3ccc4O)[C@H](O)c3ccc(c(Cl)c3)Oc3cc2cc(c3O[C@@H]2O[C@H](CO)C(O)C(O)[C@H]2O[C@H]2CC(C)(N)[C@H](O)[C@H](C)O2)Oc2ccc(cc2Cl)[C@H]1O (stereo partly drawn)
8 µg/mL

---

- System: E. coli (wild-type) BW25113
MEASURED PARAMETER: MIC

{"MOLECULE": "CN[C@H](CC(C)C)C(=O)N[C@H]1C(=O)N[C@@H](CC(N)=O)C(=O)N[C@H]2C(=O)N[C@H]3C(=O)N[C@H](C(=O)N[C@H](C(=O)NCCCCNS(=O)(=O)c4ccc(O)c(O)c4)c4cc(O)cc(O)c4-c4cc3ccc4O)[C@H](O)c3ccc(c(Cl)c3)Oc3cc2cc(c3O[C@@H]2O[C@H](CO)C(O)C(O)[C@H]2O[C@H]2CC(C)(N)[C@H](O)[C@H](C)O2)Oc2ccc(cc2Cl)[C@H]1O (some centres unmarked)", "RESULT": "32 µg/mL"}
{"MOLECULE": "CN[C@H](CC(C)C)C(=O)N[C@H]1C(=O)N[C@@H](CC(N)=O)C(=O)N[C@H]2C(=O)N[C@H]3C(=O)N[C@H](C(=O)N[C@H](C(=O)NCCCNC(=O)c4cccc(O)c4O)c4cc(O)cc(O)c4-c4cc3ccc4O)[C@H](O)c3ccc(c(Cl)c3)Oc3cc2cc(c3O[C@@H]2O[C@H](CO)C(O)C(O)[C@H]2O[C@H]2CC(C)(N)[C@H](O)[C@H](C)O2)Oc2ccc(cc2Cl)[C@H]1O (some centres unmarked)", "RESULT": "64 µg/mL"}
{"MOLECULE": "CN[C@H](CC(C)C)C(=O)N[C@H]1C(=O)N[C@@H](CC(N)=O)C(=O)N[C@H]2C(=O)N[C@H]3C(=O)N[C@H](C(=O)N[C@H](C(=O)NCCOCCOCCNC(=O)c4ccc(O)c(O)c4Cl)c4cc(O)cc(O)c4-c4cc3ccc4O)[C@H](O)c3ccc(c(Cl)c3)Oc3cc2cc(c3O[C@@H]2O[C@H](CO)C(O)C(O)[C@H]2O[C@H]2CC(C)(N)[C@H](O)[C@H](C)O2)Oc2ccc(cc2Cl)[C@H]1O (stereo in doubt)", "RESULT": "64 µg/mL"}

Recorded MIC for CNC(CC(C)C)C(=O)NC1C(=O)NC(CC(N)=O)C(=O)NC2C(=O)NC3C(=O)NC(C(=O)N[C@H](C(=O)O)c4cc(O)c(CNCCN[S@SP3](=O)(=O)c5ccc(O)c(O)c5)c(O)c4-c4cc3ccc4O)C(O)c3ccc(c(Cl)c3)Oc3cc2cc(c3OC2OC(CO)C(O)C(O)C2OC2CC(C)(N)C(O)C(C)O2)Oc2ccc(cc2Cl)C1O (some centres unmarked) , please?
16 µg/mL

Recorded MIC for CN[C@H](CC(C)C)C(=O)N[C@H]1C(=O)N[C@@H](CC(N)=O)C(=O)N[C@H]2C(=O)N[C@H]3C(=O)N[C@H](C(=O)N[C@H](C(=O)NCCOCCOCCNS(=O)(=O)c4ccc(O)c(O)c4)c4cc(O)cc(O)c4-c4cc3ccc4O)[C@H](O)c3ccc(c(Cl)c3)Oc3cc2cc(c3O[C@@H]2O[C@H](CO)C(O)C(O)[C@H]2O[C@H]2CC(C)(N)[C@H](O)[C@H](C)O2)Oc2ccc(cc2Cl)[C@H]1O (stereo in doubt) , please?
64 µg/mL

---

- System: E. coli (wild-type) BW25113
Recorded MIC for the following compounds

Guide cases for MIC, answers given:
{"COMPOUND": "CN[C@H](CC(C)C)C(=O)N[C@H]1C(=O)N[C@@H](CC(N)=O)C(=O)N[C@H]2C(=O)N[C@H]3C(=O)N[C@H](C(=O)N[C@H](C(=O)NCCCCN4C(=O)c5cc(O)c(O)cc5C4=O)c4cc(O)cc(O)c4-c4cc3ccc4O)[C@H](O)c3ccc(c(Cl)c3)Oc3cc2cc(c3O[C@@H]2O[C@H](CO)C(O)C(O)[C@H]2O[C@H]2CC(C)(N)[C@H](O)[C@H](C)O2)Oc2ccc(cc2Cl)[C@H]1O (stereo partly drawn)", "MEASURED PARAMETER": "MIC", "RESULT": "32 µg/mL"}
{"COMPOUND": "CNC(CC(C)C)C(=O)NC1C(=O)NC(CC(N)=O)C(=O)NC2C(=O)NC3C(=O)NC(C(=O)N[C@H](C(=O)NCCCNC(=O)c4cc(=O)c(O)c[nH]4)c4cc(O)cc(O)c4-c4cc3ccc4O)C(O)c3ccc(c(Cl)c3)Oc3cc2cc(c3OC2OC(CO)C(O)C(O)C2OC2CC(C)(N)C(O)C(C)O2)Oc2ccc(cc2Cl)C1O (stereo in doubt)", "MEASURED PARAMETER": "MIC", "RESULT": "32 µg/mL"}
{"COMPOUND": "CNC(CC(C)C)C(=O)NC1C(=O)NC(CC(N)=O)C(=O)NC2C(=O)NC3C(=O)NC(C(=O)N[C@H](C(=O)O)c4cc(O)c(CNCCNC(=O)c5cccc(O)c5O)c(O)c4-c4cc3ccc4O)C(O)c3ccc(c(Cl)c3)Oc3cc2cc(c3OC2OC(CO)C(O)C(O)C2OC2CC(C)(N)C(O)C(C)O2)Oc2ccc(cc2Cl)C1O (stereo partly drawn)", "MEASURED PARAMETER": "MIC", "RESULT": "> 64 µg/mL"}

What MIC appears in the records for this compound with E. coli (wild-type) BW25113? CNC(CC(C)C)C(=O)NC1C(=O)NC(CC(N)=O)C(=O)NC2C(=O)NC3C(=O)NC(C(=O)N[C@H](C(=O)NCCc4cn(CCNC(=O)c5cccc(O)c5O)nn4)c4cc(O)cc(O)c4-c4cc3ccc4O)C(O)c3ccc(c(Cl)c3)Oc3cc2cc(c3OC2OC(CO)C(O)C(O)C2OC2CC(C)(N)C(O)C(C)O2)Oc2ccc(cc2Cl)C1O (stereo partly drawn)
> 64 µg/mL

What MIC appears in the records for this compound with E. coli (wild-type) BW25113? CNC(CC(C)C)C(=O)NC1C(=O)NC(CC(N)=O)C(=O)NC2C(=O)NC3C(=O)NC(C(=O)N[C@H](C(=O)NCCCN4C(=O)c5cc(O)c(O)cc5C4=O)c4cc(O)cc(O)c4-c4cc3ccc4O)C(O)c3ccc(c(Cl)c3)Oc3cc2cc(c3OC2OC(CO)C(O)C(O)C2OC2CC(C)(N)C(O)C(C)O2)Oc2ccc(cc2Cl)C1O (stereo partly drawn)
64 µg/mL

What MIC appears in the records for this compound with E. coli (wild-type) BW25113? CNC(CC(C)C)C(=O)N[C@H]1C(=O)N[C@@H](CC(N)=O)C(=O)N[C@H]2C(=O)N[C@H]3C(=O)N[C@H](C(=O)N[C@@H](C(=O)NCc4cn(CCNC(=O)c5cccc(O)c5O)nn4)c4cc(O)cc(O)c4-c4cc3ccc4O)[C@H](O)c3ccc(c(Cl)c3)Oc3cc2cc(c3OC2O[C@H](CO)C(O)C(O)[C@H]2O[C@H]2CC(C)(N)[C@H](O)C(C)O2)Oc2ccc(cc2Cl)[C@H]1O (stereo in doubt)
> 64 µg/mL
